Numbers sourced from patent US20240301319A1.

assay notes: Odor threshold and odor value of perfuming compounds (Tables 4 to 10)
condition parameters: Table 8, perfuming compounds having a sweet note
Listing: Odor Threshold of selected compounds
// units = μg/l air; emit number, no label

Some solved entries appear below for comparison.
1) SCc1ccco1 | 1.43E−09
2) C/C=C/C(=O)C1C(C)=CCCC1(C)C (racemic) | 1.04E−04
3) C=C1CCCC(C)(C)C1C(=O)/C=C/C (racemic) | 3.73E−03
4) CC(=O)C(C)O (racemic) [(+−)-3-HYDROXY-2-BUTANONE] | 1.46E−02
5) CCCCCCCC1CCC(=O)O1 (racemic) [(+−)-5-heptyldihydro-2(3H)-furanone] | 3.16E−05

Enquiry: Provide Odor Threshold value for the following compound: CCCC=C1OC(=O)c2ccccc21 [3-BUTYLIDENE-1-BENZO[C]FURANONE]
Return: 8.65E−04

Enquiry: Provide Odor Threshold value for the following compound: CC(C)CCOCCc1ccccc1
Return: 1.38E−02

Enquiry: Provide Odor Threshold value for the following compound: Cc1occc(=O)c1O [3-HYDROXY-2-METHYL-4(4H)-PYRANONE]
Return: 4.17E−04

Enquiry: Provide Odor Threshold value for the following compound: CC1OCCC12NCCS2 (racemic)
Return: 2.53E−06

Enquiry: Provide Odor Threshold value for the following compound: CC/C=C\CC1=C(C)CCC1=O
Return: 2.16E−04

Enquiry: Provide Odor Threshold value for the following compound: C/C=C/C(=O)[C@@H]1[C@@H](C)C=CCC1(C)C (racemic)
Return: 1.70E−05

Enquiry: Provide Odor Threshold value for the following compound: CCCCCC1CCCC(=O)O1 (racemic) [(+−)-6-pentyltetrahydro-2H-pyran-2-one]
Return: 3.72E−05

Enquiry: Provide Odor Threshold value for the following compound: CCC(=O)/C=C/C1=C(C)CCCC1(C)C
Return: 1.16E−04

Enquiry: Provide Odor Threshold value for the following compound: COc1ccc2ccccc2c1
Return: 1.02E−05

* * *

assay notes: Volatility of perfuming compounds (Tables 4 to 10), with top/middle/bottom note type
Type: physicochemical
condition parameters: Table 8, perfuming compounds having a sweet note; note type by volatility
observation type: Type

1. Cc1cnc(C)c(C)n1 | Top
2. CC=CC(=O)C(C)CC (centres unmarked) | Top
3. O=C(Cc1ccccc1)OCCc1ccccc1 [2-PHENYLETHYL PHENYLACETATE] | Bottom
4. CC(=O)OCCC1CCCCC1 [2-CYCLOHEXYL ETHYL ACETATE] | Top
5. COc1cc(C)ccc1O | Top

Enquiry: Provide Type value for the following compound: CCCCCCC1CCC(=O)O1 (racemic) [(+−)-4-DECANOLIDE]
Return: Bottom

Enquiry: Provide Type value for the following compound: CCCCCC(=O)OCC [ETHYL HEXANOATE]
Return: Top

* * *

assay notes: Odor threshold and odor value of perfuming compounds (Tables 4 to 10)
condition parameters: Table 8, perfuming compounds having a sweet note
Listing: Odor Value of selected compounds
Answer with the value's number alone.

Some solved entries appear below for comparison.
1) CCC(=O)/C=C/C1=C(C)CCCC1(C)C | 1.37E+05
2) CCCCOC(C)=O [BUTYL ACETATE] | 2.80E+05
3) CC1OCCC12NCCS2 (racemic) | 2.07E+07

Next, consider the following compound.
Enquiry: Provide Odor Value value for the following compound: CCCCCC(=O)O
Return: 1.09E+04

* * *

assay notes: Volatility of perfuming compounds (Tables 4 to 10), with top/middle/bottom note type
Assay type: physicochemical
condition parameters: Table 8, perfuming compounds having a sweet note
Rule: Volatility below 200 μg/l air gives t, anything at or above gives f.

Examples with answers:
1. C/C=C/C(=O)C1C(C)=CCCC1(C)C (racemic) | t
2. Cc1occc(=O)c1O [3-HYDROXY-2-METHYL-4(4H)-PYRANONE] | t
3. C/C=C(\C)C(=O)OCCCCCC [hexyl (2E)-2-methyl-2-butenoate] | f
4. CCCC(=O)OC(C)(C)Cc1ccccc1 [1,1-DIMETHYL-2-PHENYLETHYL BUTANOATE] | t

Enquiry: Does the reported Volatility of the following compound sit strictly below 200 μg/l air? COc1cccc(OC)c1O
Return: t

Enquiry: Does the reported Volatility of the following compound sit strictly below 200 μg/l air? CCC(CC(C)CC)=NO (stereo not drawn)
Return: t

Enquiry: Does the reported Volatility of the following compound sit strictly below 200 μg/l air? CCCCCC(=O)OCC [ETHYL HEXANOATE]
Return: f

Enquiry: Does the reported Volatility of the following compound sit strictly below 200 μg/l air? COc1ccc(CCC(C)=O)cc1
Return: t

Enquiry: Does the reported Volatility of the following compound sit strictly below 200 μg/l air? CCCCCCC1CCC(=O)O1 (racemic) [(+−)-4-DECANOLIDE]
Return: t

Enquiry: Does the reported Volatility of the following compound sit strictly below 200 μg/l air? CC1=CC[C@H](C(C)CC2CCCC2=O)CC1 (stereo partly drawn)
Return: t

Enquiry: Does the reported Volatility of the following compound sit strictly below 200 μg/l air? C/C=C/c1ccc(OC)cc1 [1-methoxy-4-[(1E)-1-propen-1-yl]benzene]
Return: t

Enquiry: Does the reported Volatility of the following compound sit strictly below 200 μg/l air? COC(=O)Cc1ccccc1 [METHYL PHENYLACETATE]
Return: f

Enquiry: Does the reported Volatility of the following compound sit strictly below 200 μg/l air? CCCCO
Return: f

* * *

assay notes: Odor threshold and odor value of perfuming compounds (Tables 4 to 10)
condition parameters: Table 10, woody note
observation type: Odor Threshold (μg/l air)
// units = μg/l air; emit number, no label

1) CC(C)(C)C1CCC(=O)CC1 | 1.15E−01
2) CC1CCC2C(C)(C)C3CC12CCC3(C)O (racemic) | 3.38E−02
3) CC1(CO)CC1CC1CC2CC2(C)C1(C)C (stereo not shown) | 2.18E−06

Next, consider the following molecule.
Enquiry: Provide Odor Threshold value for the following molecule: CCCCC[C@@H]1C(=O)CC[C@@H]1CC(=O)OC
Return: 2.82E−04

* * *

assay notes: Volatility of perfuming compounds (Tables 4 to 10), with top/middle/bottom note type
Assay type: physicochemical
condition parameters: note type (Top/Middle/Bottom) by volatility; perfuming compounds having a green note
observation type: Type

Some solved entries appear below for comparison.
1) N#CC(=C1CCCCC1)c1ccccc1 | Bottom
2) CCCCCCCCCCO | Bottom
3) CC(C)c1cccc(C(C)CC=O)c1 (racemic) [(+−)-3-(3-ISOPROPYL-1-PHENYL)BUTANAL] | Bottom
4) CC1CC(C)(c2ccccc2)CO1 (racemic) | Top
5) CCCCCC(=O)OCC [ETHYL HEXANOATE] | Top
6) CC/C=C\CCOC(=O)c1ccccc1O [(3Z)-3-hexen-1-yl salicylate] | Bottom
7) CCOC(=O)C(C)CC (racemic) [(+−)-ethyl 2-methylbutanoate] | Top
8) CC1(C)CC=C(CCC=O)CC1 | Top

Enquiry: Provide Type value for the following molecule: CC/C=C\CCOC(=O)C(C)CC (racemic) [(+−)-(Z)-3-HEXENYL 2-METHYLBUTANOATE]
Return: Top

Enquiry: Provide Type value for the following molecule: COC(OC)C(C)c1ccccc1 (stereo not drawn)
Return: Top

Enquiry: Provide Type value for the following molecule: CC/C=C\CCOC(=O)c1ccccc1 [(3Z)-3-hexen-1-yl benzoate]
Return: Bottom

Enquiry: Provide Type value for the following molecule: CCCCCCO
Return: Top

Enquiry: Provide Type value for the following molecule: CCCC1CCC(O)C(OC)C1 (stereo not drawn)
Return: Top

Enquiry: Provide Type value for the following molecule: CCC/C=C/CO [(E)-2-HEXEN-1-OL]
Return: Top

* * *

assay notes: Volatility of perfuming compounds (Tables 4 to 10), with top/middle/bottom note type
Type: physicochemical
condition parameters: Table 6, perfuming compounds having a fruity note
Where a name gives a salt, the structure may show the parent alone.
Listing: Volatility of selected molecules
// units = μg/l air; emit number, no label

Some solved entries appear below for comparison.
1. CC1CC(C)(c2ccccc2)OC(C)O1 (centres unmarked) | 113.83
2. O=C1CCCCCCC/C=C/CCCCCCO1 [(10E)-oxacycloheptadec-10-en-2-one] | 0.74
3. CCCCCCOC(C)=O [HEXYL ACETATE] | 2316.04

Enquiry: Provide Volatility value for the following molecule: CCCCCC(=O)OCC [ETHYL HEXANOATE]
Return: 9675.10

Enquiry: Provide Volatility value for the following molecule: C=C1CCCC(C)(C)C1C(=O)OC (racemic)
Return: 1089.25

Enquiry: Provide Volatility value for the following molecule: CCC(C)C(=O)OCCc1ccccc1 (racemic) [(+−)-2-PHENYLETHYL 2-METHYLBUTANOATE]
Return: 37.73

Enquiry: Provide Volatility value for the following molecule: O=COCCc1ccccc1 [2-PHENYLETHYL FORMATE]
Return: 567.67

Enquiry: Provide Volatility value for the following molecule: COC(=O)Cc1ccccc1 [METHYL PHENYLACETATE]
Return: 555.30

Enquiry: Provide Volatility value for the following molecule: CCCCC(CC)C(=O)OC (racemic) [(+−)-methyl 2-ethylhexanoate]
Return: 6677.64

Enquiry: Provide Volatility value for the following molecule: CC(OC=O)C1CCCC(C)(C)C1 (centres unmarked)
Return: 1129.46

Enquiry: Provide Volatility value for the following molecule: CCC(CC(C)CC)=NO (centres unmarked)
Return: 128.04
